Molecular target: DNA topoisomerase 2-alpha (Homo sapiens) (UniProt P11388)
Sequence (P11388 whole entry): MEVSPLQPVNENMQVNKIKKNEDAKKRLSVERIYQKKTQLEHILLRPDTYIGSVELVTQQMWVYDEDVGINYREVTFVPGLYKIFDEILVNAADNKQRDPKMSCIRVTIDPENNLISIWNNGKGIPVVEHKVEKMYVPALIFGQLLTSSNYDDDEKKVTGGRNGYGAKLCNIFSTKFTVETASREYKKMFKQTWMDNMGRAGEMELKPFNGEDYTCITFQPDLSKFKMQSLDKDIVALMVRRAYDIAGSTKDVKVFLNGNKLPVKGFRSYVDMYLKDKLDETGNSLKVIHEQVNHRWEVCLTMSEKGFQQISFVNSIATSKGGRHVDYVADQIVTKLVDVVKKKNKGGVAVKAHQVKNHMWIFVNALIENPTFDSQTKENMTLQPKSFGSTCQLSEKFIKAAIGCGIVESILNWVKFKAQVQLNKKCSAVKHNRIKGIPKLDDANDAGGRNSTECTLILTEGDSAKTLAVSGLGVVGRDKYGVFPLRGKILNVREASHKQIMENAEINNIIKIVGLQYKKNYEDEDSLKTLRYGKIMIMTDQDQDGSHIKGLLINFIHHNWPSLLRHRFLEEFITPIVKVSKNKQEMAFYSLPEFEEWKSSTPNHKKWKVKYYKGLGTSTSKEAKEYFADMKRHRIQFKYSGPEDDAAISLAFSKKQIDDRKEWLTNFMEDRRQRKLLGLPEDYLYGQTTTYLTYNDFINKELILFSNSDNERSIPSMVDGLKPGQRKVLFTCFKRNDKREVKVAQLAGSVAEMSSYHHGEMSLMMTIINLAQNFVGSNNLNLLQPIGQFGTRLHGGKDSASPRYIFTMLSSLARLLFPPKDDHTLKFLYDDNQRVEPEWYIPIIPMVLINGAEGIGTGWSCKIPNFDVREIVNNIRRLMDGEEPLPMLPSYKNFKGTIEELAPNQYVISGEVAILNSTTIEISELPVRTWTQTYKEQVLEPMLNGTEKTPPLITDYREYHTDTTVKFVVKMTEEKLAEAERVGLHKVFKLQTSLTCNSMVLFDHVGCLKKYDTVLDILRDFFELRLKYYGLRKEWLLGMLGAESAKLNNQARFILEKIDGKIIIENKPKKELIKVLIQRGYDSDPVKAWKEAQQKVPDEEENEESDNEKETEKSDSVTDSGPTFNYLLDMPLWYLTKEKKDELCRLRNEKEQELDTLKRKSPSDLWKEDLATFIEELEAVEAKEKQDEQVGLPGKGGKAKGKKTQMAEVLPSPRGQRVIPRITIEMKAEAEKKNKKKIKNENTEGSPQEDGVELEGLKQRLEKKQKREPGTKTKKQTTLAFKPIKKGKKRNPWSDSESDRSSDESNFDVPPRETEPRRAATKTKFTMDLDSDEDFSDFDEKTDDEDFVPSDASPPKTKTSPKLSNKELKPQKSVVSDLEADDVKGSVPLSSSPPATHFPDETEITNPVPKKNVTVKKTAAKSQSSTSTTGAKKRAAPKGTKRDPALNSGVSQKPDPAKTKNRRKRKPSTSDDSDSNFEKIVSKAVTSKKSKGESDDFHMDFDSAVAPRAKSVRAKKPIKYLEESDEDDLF
Assay: Inhibition of human recombinant topoisomerase 2 alpha assessed as stabilization of enzyme-PBR322 DNA complex at 100 uM relative to control
Use yes when the recorded % cleavage is no lower than 20%; use no when it is lower.

Use these answered entries as a reference point.
Cn1cc(NC(=O)c2cc(NC(=O)OC(C)(C)C)cn2C)cc1C(=O)NCCn1nc2c3c(cccc31)C(=O)c1ccccc1-2 :: no
NCCn1nc2c3c(cccc31)C(=O)c1c(Cl)cccc1-2 :: no
CN(C)CC(=O)Nc1cc(C(=O)NCCn2nc3c4c(cccc42)C(=O)c2c(Cl)cccc2-3)n(C)c1 :: yes
CN(C)CC(=O)Nc1cc(C(=O)NCCn2nc3c4c(cccc42)C(=O)c2ccccc2-3)n(C)c1 :: no
NCCn1nc2c3c(cccc31)C(=O)c1ccccc1-2 :: yes
Cn1cc(NC(=O)c2cc(N)cn2C)cc1C(=O)NCCn1nc2c3c(cccc31)C(=O)c1ccccc1-2 :: no
Cn1cc(NC(=O)c2cc(N)cn2C)cc1C(=O)NCCn1nc2c3c(cccc31)C(=O)c1c(Cl)cccc1-2 :: no

Q. Does the reported % cleavage for COc1cccc2c1C(=O)c1c(O)c3c(c(O)c1C2=O)C[C@@](O)(C(=O)CO)C[C@@H]3O[C@H]1C[C@H](N)[C@H](O)[C@H](C)O1 [DOXORUBICIN] fall at or above the 20% mark?
A. no

###

Target: DNA topoisomerase 1 (Homo sapiens) (UniProt P11387)
Sequence (whole entry): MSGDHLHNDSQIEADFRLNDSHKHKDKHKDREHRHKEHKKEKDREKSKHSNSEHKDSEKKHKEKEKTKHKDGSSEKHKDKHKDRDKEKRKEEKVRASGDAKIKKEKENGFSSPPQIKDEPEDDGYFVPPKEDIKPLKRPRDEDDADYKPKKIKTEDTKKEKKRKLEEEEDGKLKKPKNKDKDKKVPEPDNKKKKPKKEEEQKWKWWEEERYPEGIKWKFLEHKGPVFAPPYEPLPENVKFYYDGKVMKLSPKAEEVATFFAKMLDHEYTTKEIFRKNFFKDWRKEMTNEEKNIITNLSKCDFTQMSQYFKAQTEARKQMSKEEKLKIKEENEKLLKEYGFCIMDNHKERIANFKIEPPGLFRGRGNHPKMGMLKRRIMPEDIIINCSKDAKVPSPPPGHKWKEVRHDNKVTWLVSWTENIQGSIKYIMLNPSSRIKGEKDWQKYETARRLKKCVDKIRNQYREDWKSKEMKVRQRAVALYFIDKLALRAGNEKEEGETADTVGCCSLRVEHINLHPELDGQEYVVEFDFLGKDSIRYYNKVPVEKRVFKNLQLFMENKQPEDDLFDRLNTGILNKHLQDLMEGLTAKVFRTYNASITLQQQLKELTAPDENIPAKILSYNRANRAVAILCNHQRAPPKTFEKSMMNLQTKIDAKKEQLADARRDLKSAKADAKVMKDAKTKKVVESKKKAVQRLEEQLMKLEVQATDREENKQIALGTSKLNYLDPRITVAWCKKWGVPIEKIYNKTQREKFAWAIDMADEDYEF
Test: Inhibition of topoisomerase 1-mediated relaxation of supercoiled pBR322 DNA at 20 uM after 20 mins using ethidium bromide staining by electrophoresis relative to control
Use MET when the recorded inhibition is no lower than 50%; use NOT MET when it is lower.

Use these answered entries as a reference point.
Cn1cc(N)cc1C(=O)NCCn1nc2c3c(cccc31)C(=O)c1c(Cl)cccc1-2 :: NOT MET
O=C1c2c(Cl)cccc2-c2nn(CCO)c3cccc1c23 :: MET
O=C1c2ccccc2-c2nn(CCO)c3cccc1c23 :: MET

Q. Does the reported inhibition for NCCn1nc2c3c(cccc31)C(=O)c1c(Cl)cccc1-2 fall at or above the 50% mark?
A. MET

Q. Does the reported inhibition for CN(C)CC(=O)Nc1cc(C(=O)Nc2cc(C(=O)NCCn3nc4c5c(cccc53)C(=O)c3ccccc3-4)n(C)c2)n(C)c1 fall at or above the 50% mark?
A. NOT MET

###

Target: DNA topoisomerase 2-alpha (Homo sapiens) (UniProt P11388)
Experiment: Inhibition of human recombinant topoisomerase 2 alpha assessed as stabilization of enzyme-PBR322 DNA complex at 100 uM relative to control
Use condition met when the recorded % cleavage is no lower than 20%; use condition not met when it is lower.

O=C1c2ccccc2-c2nn(CCO)c3cccc1c23 :: condition met
Cn1cc(NC(=O)OC(C)(C)C)cc1C(=O)NCCn1nc2c3c(cccc31)C(=O)c1ccccc1-2 :: condition not met
Cn1cc(NC(=O)c2cc(NC(=O)CNC(=N)N)cn2C)cc1C(=O)NCCC(=N)N :: condition not met
Cn1cc(N)cc1C(=O)NCCn1nc2c3c(cccc31)C(=O)c1ccccc1-2 :: condition met

Now consider the entry below.
Q. Does the reported % cleavage for Cn1cc(N)cc1C(=O)NCCn1nc2c3c(cccc31)C(=O)c1c(Cl)cccc1-2 fall at or above the 20% mark?
A. condition met

###

Target: DNA topoisomerase 2-alpha (Homo sapiens)
Assay: Inhibition of human recombinant topoisomerase 2 alpha assessed as stabilization of enzyme-PBR322 DNA complex at 100 uM relative to control
Experimental Endpoint: % cleavage (%)
Quick note: give the figure in %, leave out the unit.

Sure, the documented % cleavage for Cn1cc(NC(=O)OC(C)(C)C)cc1C(=O)NCCn1nc2c3c(cccc31)C(=O)c1c(Cl)cccc1-2 is 11

Sure, the documented % cleavage for O=C1c2c(Cl)cccc2-c2nn(CCO)c3cccc1c23 is 14

Sure, the documented % cleavage for Cn1cc(NC(=O)c2cc(NC(=O)OC(C)(C)C)cn2C)cc1C(=O)NCCn1nc2c3c(cccc31)C(=O)c1c(Cl)cccc1-2 is 24

###

Molecular target: UniProt P11388
Assay: Inhibition of human recombinant topoisomerase 2 alpha-mediated Crithidia fasciculate kDNA decatenation at 20 uM relative to control
Experimental Endpoint: inhibition (%)
Quick note: give the figure in %, leave out the unit.

Worked set:
CN(C)CC(=O)Nc1cc(C(=O)NCCn2nc3c4c(cccc42)C(=O)c2c(Cl)cccc2-3)n(C)c1 :: 97
Cn1cc(NC(=O)c2cc(N)cn2C)cc1C(=O)NCCn1nc2c3c(cccc31)C(=O)c1c(Cl)cccc1-2 :: 94
Cn1cc(NC(=O)c2cc(NC(=O)OC(C)(C)C)cn2C)cc1C(=O)NCCn1nc2c3c(cccc31)C(=O)c1ccccc1-2 :: 91
Cn1cc(NC(=O)OC(C)(C)C)cc1C(=O)NCCn1nc2c3c(cccc31)C(=O)c1ccccc1-2 :: 91
NCCn1nc2c3c(cccc31)C(=O)c1ccccc1-2 :: 75
O=C1c2ccccc2-c2nn(CCO)c3cccc1c23 :: 60
Cn1cc(NC(=O)OC(C)(C)C)cc1C(=O)NCCn1nc2c3c(cccc31)C(=O)c1c(Cl)cccc1-2 :: 94
Cn1cc(NC(=O)c2cc(N)cn2C)cc1C(=O)NCCn1nc2c3c(cccc31)C(=O)c1ccccc1-2 :: 91

Sure, the documented inhibition for NCCn1nc2c3c(cccc31)C(=O)c1c(Cl)cccc1-2 is 100

Sure, the documented inhibition for CN(C)CC(=O)Nc1cc(C(=O)Nc2cc(C(=O)NCCn3nc4c5c(cccc53)C(=O)c3ccccc3-4)n(C)c2)n(C)c1 is 91

Sure, the documented inhibition for COc1cccc2c1C(=O)c1c(O)c3c(c(O)c1C2=O)C[C@@](O)(C(=O)CO)C[C@@H]3O[C@H]1C[C@H](N)[C@H](O)[C@H](C)O1 is 30

Sure, the documented inhibition for Cn1cc(NC(=O)c2cc(NC(=O)OC(C)(C)C)cn2C)cc1C(=O)NCCn1nc2c3c(cccc31)C(=O)c1c(Cl)cccc1-2 is 97

Sure, the documented inhibition for O=C1c2c(Cl)cccc2-c2nn(CCO)c3cccc1c23 is 56

Sure, the documented inhibition for CN(C)CC(=O)Nc1cc(C(=O)NCCn2nc3c4c(cccc42)C(=O)c2ccccc2-3)n(C)c1 is 94

###

Tested on: DC3F
Test: Cytotoxicity against hamster DC-3F cells
Type: functional, cell-based
Conditions: Cricetulus griseus
Experimental Endpoint: IC50 (mM)
Quick note: give the figure in mM, leave out the unit.

Sure, the documented IC50 for Cn1cc(NC(=O)c2cc(NC(=O)CNC(=N)N)cn2C)cc1C(=O)NCCC(=N)N [NETROPSIN] is 3.2

###

Test system: Calf thymus DNA
Assay: Binding affinity to calf thymus DNA assessed as increase in melting temperature at 1 uM by spectrophotometer analysis
Type: nucleic-acid assay
Conditions: Bos taurus
Experimental Endpoint: ΔTm (°C)
Quick note: give the figure in °C, leave out the unit.

Cn1cc(NC(=O)OC(C)(C)C)cc1C(=O)NCCn1nc2c3c(cccc31)C(=O)c1ccccc1-2 :: 1.3
Cn1cc(NC(=O)OC(C)(C)C)cc1C(=O)NCCn1nc2c3c(cccc31)C(=O)c1c(Cl)cccc1-2 :: 0.7
CN(C)CCNc1cccc2c1C(=O)c1cccc3c1c-2nn3CCNC(=O)c1cc(NC(=O)c2cc(NC(=O)CN(C)C)cn2C)cn1C :: 5.3

Sure, the documented ΔTm for Cn1cc(NC(=O)c2cc(NC(=O)CNC(=N)N)cn2C)cc1C(=O)NCCC(=N)N is 5.7

Sure, the documented ΔTm for Cn1cc(NC(=O)c2cc(NC(=O)OC(C)(C)C)cn2C)cc1C(=O)NCCn1nc2c3c(cccc31)C(=O)c1ccccc1-2 is 0.4

Sure, the documented ΔTm for Cn1cc(NC(=O)c2cc(N)cn2C)cc1C(=O)NCCn1nc2c3c(cccc31)C(=O)c1c(Cl)cccc1-2 is 0.6

Sure, the documented ΔTm for Cn1cc(N)cc1C(=O)NCCn1nc2c3c(cccc31)C(=O)c1ccccc1-2 is 1.8

Sure, the documented ΔTm for Cn1cc(N)cc1C(=O)NCCn1nc2c3c(cccc31)C(=O)c1c(Cl)cccc1-2 is 0.8
